Measurement protocol: Dog 7-day repeat dose PO study
Format: in vivo
Setup conditions: male, plasma, 400 mg/kg, Day 7, 400 mg/kg PO, M, N = 1
Where a name gives a salt, the structure may show the parent alone.
Measure name: half-life
Answer with the figure and its unit, nothing else.

Q: Given CC1(C)SC(Nc2ccccc2O)=N[C@@H]1C(=O)O [Compound 1, mono-hydrochloride] , state its recorded half-life.
Result: 1.3 h

---

Measurement protocol: Dog 7-day repeat dose PO study
Assay type: in vivo
Setup conditions: male, plasma, 200 mg/kg, Day 1, 200 mg/kg PO, M, N = 1
Counter-ions that a name gives are not always drawn.
Measure name: half-life (h)
Write it as a number; the unit h goes unstated.

Q: Given CC1(C)SC(Nc2ccccc2O)=N[C@@H]1C(=O)O [Compound 1, mono-hydrochloride] , state its recorded half-life.
Result: 1.1
